Data provenance is the NIST ThermoML archive (doi:10.1016/j.jct.2017.12.021).

Details: 298.15 K; 101.33 kPa; Liquid; Pycnometric method
Where a name gives a salt, the structure may show the parent alone. ± gives the expanded uncertainty stated by the source.

# Compound, mass density
data = [
    ("CCOC(=O)CC(O)(CC(=O)OCC)C(=O)OCC [triethyl citrate]", "1134.5 ± 4.7 kg/m3"),
    ("CCCCOC(=O)C(C)O (centres undefined) [butyl 2-hydroxypropanoate]", "977 ± 4 kg/m3"),
    ("CC(=O)OCC(COC(C)=O)OC(C)=O [glyceryl triethanoate]", "1152.9 ± 4.7 kg/m3"),
    ("CCOC(=O)CC(CC(=O)OCC)(OC(C)=O)C(=O)OCC [triethyl acetyl citrate]", "1137.5 ± 5.2 kg/m3"),
]
